I'd be grateful if you could share measured koff for these entries.
Target: T1, HMGB1 (UniProt P09429 1-215, limits assumed)
T1 construct: also called biotinylated HMGB1
T1 sequence (looked up): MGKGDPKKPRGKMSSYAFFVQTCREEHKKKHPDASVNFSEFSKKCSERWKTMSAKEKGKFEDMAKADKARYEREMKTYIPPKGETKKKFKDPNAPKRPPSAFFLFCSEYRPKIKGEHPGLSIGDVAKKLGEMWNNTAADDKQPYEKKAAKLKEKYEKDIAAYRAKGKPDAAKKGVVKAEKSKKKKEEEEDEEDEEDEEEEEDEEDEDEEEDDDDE
Test: Octet BLI
Give a bare numeral; the unit s⁻¹ is implied.

Task: Look up koff: P1E8 anti-HMGB1 (designed binder, 14FN3 variant; on phage in phage ELISA, soluble 6xHis-tagged in Octet) NVSPPRRARVTDATETTITISWRAAESAIARFQVDAVPANGQTPIQRTIKRTKHTYTITGLQPGTDYKIYLYTLNDNARSSPVVIDAST
Output: 0.000325

Task: Using the record for P2C6 anti-HMGB1 (designed binder, 14FN3 variant; on phage in phage ELISA, soluble 6xHis-tagged in Octet) NVSPPRRARVTDATETTITIRWGVAPSQVIRFQVDAVPANGQTPIQRTIKRSVHAYTITGLQPGTDYKIYLYTLNDNARSSPVVIDAST , report its koff.
Output: 0.000991

Task: Fill in the blank: the reported koff of R2F8 anti-HMGB1 (designed binder, 14FN3 variant; also called R2F8 HMGB1 FN3) NVSPPRRARVTDATETTITIRWARSASEIARFQVDAVPANGQTPIQRTIKRSANIYTITGLQPGTDYKIYLYTLNDNARSSPVVIDAST is ____.
Output: 0.000267
